Entries annotated with measured phosphorylation enrichment
# Tested on: AncSZ
# Assay details: phosphorylation enrichment, bacterial display (enrichment ratio); higher = better substrate or ligand; peptides without Tyr show the background;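 note: 11-residue human phosphosite peptides and single-mutation variants displayed on the E. coli surface, counted by deep sequencing, each peptide's frequency after selection divided by its frequency in the unselected input library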;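 note: frequency after pTyr selection over input frequency; kinase dosed for 20-30% of maximal phosphorylation in three min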
API doc: respond with a numeric literal and nothing else, no unit.

SEKISYVFMKR [SSX7_Y48_L43S_YF]; 1.25
YQLPYYNMVPS [BMPR1A_Y458]; 2.75
CTTIHYNFRCN [TP53_Y234_M237R_YF]; 0.763

Could you please provide reported phosphorylation enrichment for EEEYEYMNRRR [ERBB3_Y1199_D1194E] ? Thanks!
1.15

Could you please provide reported phosphorylation enrichment for GSETPYVDRTP [ESS2_Y335] ? Thanks!
0.711

---

# Test system: Jak2 (UniProt O60674)
# Sequence (O60674 whole entry, looked up): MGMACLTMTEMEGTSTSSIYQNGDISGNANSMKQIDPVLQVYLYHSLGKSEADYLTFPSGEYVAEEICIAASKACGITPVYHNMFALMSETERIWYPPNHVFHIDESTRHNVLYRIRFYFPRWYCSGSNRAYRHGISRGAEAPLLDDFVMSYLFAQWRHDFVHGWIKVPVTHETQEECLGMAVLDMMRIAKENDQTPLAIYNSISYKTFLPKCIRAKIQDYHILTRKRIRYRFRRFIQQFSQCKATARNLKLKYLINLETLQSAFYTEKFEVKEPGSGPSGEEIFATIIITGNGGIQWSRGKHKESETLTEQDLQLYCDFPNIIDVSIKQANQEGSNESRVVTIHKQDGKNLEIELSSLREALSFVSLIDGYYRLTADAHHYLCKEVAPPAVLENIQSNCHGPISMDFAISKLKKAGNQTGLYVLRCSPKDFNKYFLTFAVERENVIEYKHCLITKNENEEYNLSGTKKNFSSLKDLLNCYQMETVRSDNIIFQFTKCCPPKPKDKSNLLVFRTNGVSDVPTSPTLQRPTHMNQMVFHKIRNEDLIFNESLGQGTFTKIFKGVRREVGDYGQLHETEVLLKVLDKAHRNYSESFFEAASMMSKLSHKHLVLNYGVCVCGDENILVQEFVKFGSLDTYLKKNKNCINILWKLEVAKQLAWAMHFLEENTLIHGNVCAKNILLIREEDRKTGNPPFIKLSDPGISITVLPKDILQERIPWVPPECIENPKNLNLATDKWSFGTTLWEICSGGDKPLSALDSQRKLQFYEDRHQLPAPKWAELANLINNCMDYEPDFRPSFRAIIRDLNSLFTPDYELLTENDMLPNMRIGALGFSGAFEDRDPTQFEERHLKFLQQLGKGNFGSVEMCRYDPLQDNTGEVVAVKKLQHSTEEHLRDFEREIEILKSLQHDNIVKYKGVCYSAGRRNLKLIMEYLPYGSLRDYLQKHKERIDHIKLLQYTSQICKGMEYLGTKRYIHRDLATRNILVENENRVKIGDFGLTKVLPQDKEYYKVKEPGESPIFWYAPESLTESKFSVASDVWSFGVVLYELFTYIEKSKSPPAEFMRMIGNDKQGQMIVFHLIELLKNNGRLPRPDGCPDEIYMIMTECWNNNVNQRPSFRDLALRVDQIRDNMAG
# Assay details: phosphorylation enrichment, bacterial display (enrichment ratio); higher = better substrate or ligand; peptides without Tyr show the background
Classify by measured phosphorylation enrichment: Yes if it is equal to or exceeds 0.9, No if it is smaller.

The following sequences have reported results that may help.
ANARMYGVLPW [PLP1_Y207_D203N]; No
NVDGKYSFLKV [GRM3_Y478_G475D_YF]; No
LENSTYQFIHV [CRB1_Y760_R764H_YF]; Yes
KYVVVYFREID [IL17RB_Y447]; Yes
HITQVYGFFDE [PPP2CA_Y127_Q122H_YF]; Yes

Assess whether reported phosphorylation enrichment for LRGEDCGFSVD [PRKCI_Y430_Y430C] sits at 0.9 or higher.
Yes

Assess whether reported phosphorylation enrichment for EFISECCGEII [EZH2_Y641_Y641C] sits at 0.9 or higher.
Yes

Assess whether reported phosphorylation enrichment for SLQSEYVHYGG [CDC14A_Y591] sits at 0.9 or higher.
No

---

Entries annotated with measured phosphorylation enrichment
# Test system: AncSZ
# Assay details: phosphorylation enrichment, bacterial display (enrichment ratio); higher = better substrate or ligand; peptides without Tyr show the background
API doc: respond with a numeric literal and nothing else, no unit.

State, for AncSZ, measured phosphorylation enrichment of the sequence listed here: IQRSLYDRPAS [PDGFRA_Y762]
0.699

State, for AncSZ, measured phosphorylation enrichment of the sequence listed here: EELLRYAIVTP [POC5_Y37_H36R]
0.928

State, for AncSZ, measured phosphorylation enrichment of the sequence listed here: CTTIHYNFMCS [TP53_Y234_N239S_YF]
0.846

State, for AncSZ, measured phosphorylation enrichment of the sequence listed here: DFTSRYLNASD [PKHD1_Y828]
0.797

---

Entries annotated with measured phosphorylation enrichment
# System: AncSZ
# Assay details: phosphorylation enrichment, bacterial display (enrichment ratio); higher = better substrate or ligand; peptides without Tyr show the background
API doc: respond with a numeric literal and nothing else, no unit.

DFPGIYSGFDD [POLR1C_Y33_N32I_YF]; 1.31
LIDGYYRLTAD [JAK2_Y373]; 2.46
CTTIHYNFMCT [TP53_Y234_N239T_YF]; 1.06
HYVYYYSYLLK [PTEN_Y178_R173H]; 2.09
SHEELYKWFTS [DYNC1H1_Y3051]; 1.28

State, for AncSZ, measured phosphorylation enrichment of the sequence listed here: ASELGYQFQAI [UROD_Y133_V134Q]
0.77

State, for AncSZ, measured phosphorylation enrichment of the sequence listed here: ARKWGYTVKGI [OAT_Y158]
0.914

State, for AncSZ, measured phosphorylation enrichment of the sequence listed here: WAFNLYDINKF [KCNIP3_Y174_D179Y_YF]
1.02

State, for AncSZ, measured phosphorylation enrichment of the sequence listed here: PRQRRYVFFFS [PTEN_Y174_S170R_YF]
0.739

State, for AncSZ, measured phosphorylation enrichment of the sequence listed here: GSIQQYIYKQE [PRG4_Y1271]
0.651

State, for AncSZ, measured phosphorylation enrichment of the sequence listed here: RRVLVYGGRGA [QDPR_Y16]
1.1

State, for AncSZ, measured phosphorylation enrichment of the sequence listed here: EAAFVYVISSA [WNT4_Y113_A114V]
1.32

State, for AncSZ, measured phosphorylation enrichment of the sequence listed here: VNCHQYDGLVE [ATP2A2_Y407]
1.06

State, for AncSZ, measured phosphorylation enrichment of the sequence listed here: EGGFAYVPLKD [PRIM2_Y208_D204G]
1.19

State, for AncSZ, measured phosphorylation enrichment of the sequence listed here: NPQKSCFIRLF [WAS_Y83_Y83C_YF]
1.06

State, for AncSZ, measured phosphorylation enrichment of the sequence listed here: FSAPNCCFRCG [PPP2CA_Y265_Y265C_YF]
0.856

State, for AncSZ, measured phosphorylation enrichment of the sequence listed here: SVVVCYEPPEV [TP53_Y220_P219C]
1.78

State, for AncSZ, measured phosphorylation enrichment of the sequence listed here: LVSCAYQMARG [FGFR1_Y605_V607M]
1.22

Numbers sourced from the supplement of paper PMC10065799.
